- Test system: Rattus norvegicus
- test_name: In vivo measure of dopaminergic activity by the induction of contralateral turning behavior in 6-hydroxydopamine (6-OHDA) lesioned rats, ip
- Format: functional
- condition_notes: Rattus norvegicus, ip; read-out: ED50
Please provide measured ED50 for the entries that follow.
Give the value in mg/kg but do not write mg/kg after it.

Input: Kindly indicate its recorded ED50. Item: CCCN1C[C@H](CSC)C[C@@H]2c3cccc4[nH]cc(c34)C[C@H]21 [PERGOLIDE]
Output: 0.1

Input: Name the recorded ED50 of the compound listed here: CCCN1CCO[C@@H]2c3cccc4[nH]cc(c34)C[C@H]21
Output: 0.028

Input: Given C=CCN1CCO[C@@H]2c3cccc4[nH]cc(c34)C[C@H]21 , respond with its ED50.
Output: 0.15

###

Can you tell me ED50 for the items I'm about to list?
- Tested on: Rattus norvegicus
- test_name: In vivo measure of dopaminergic activity by the induction of contralateral turning behavior in 6-hydroxydopamine (6-OHDA) lesioned rats, ip
- Format: functional
Numeric answer only, unit mg/kg assumed.

Input: Tell me measured ED50 for CCN1CCO[C@@H]2c3cccc4[nH]cc(c34)C[C@H]21 (stereo in doubt; (-)6b) please.
Output: 0.027

Input: State its ED50 for this compound: CCN1CCO[C@@H]2c3cccc4[nH]cc(c34)C[C@H]21 (stereo in doubt; 6b)
Output: 0.09

Input: Give reported ED50 value for CCN1CCO[C@@H]2c3cccc4[nH]cc(c34)C[C@H]21 (stereo in doubt; (+)6b)
Output: 7.5

###

- target_entity: Cerebral cortex alpha adrenergic receptor (Bos taurus, UniProt Q28838+P18130)
- Sequence (Q28838 whole entry): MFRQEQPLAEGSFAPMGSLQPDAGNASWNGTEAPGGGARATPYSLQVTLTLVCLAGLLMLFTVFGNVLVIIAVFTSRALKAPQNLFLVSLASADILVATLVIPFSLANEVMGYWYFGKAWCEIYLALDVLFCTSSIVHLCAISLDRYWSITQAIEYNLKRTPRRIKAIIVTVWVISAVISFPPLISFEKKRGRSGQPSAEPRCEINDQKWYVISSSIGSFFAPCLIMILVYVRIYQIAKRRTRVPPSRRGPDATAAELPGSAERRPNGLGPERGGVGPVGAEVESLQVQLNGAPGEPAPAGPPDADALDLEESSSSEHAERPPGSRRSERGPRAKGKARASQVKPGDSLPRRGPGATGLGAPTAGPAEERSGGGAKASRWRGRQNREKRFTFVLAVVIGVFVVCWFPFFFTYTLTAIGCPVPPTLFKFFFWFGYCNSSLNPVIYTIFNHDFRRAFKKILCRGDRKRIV
- Sequence (P18130 whole entry): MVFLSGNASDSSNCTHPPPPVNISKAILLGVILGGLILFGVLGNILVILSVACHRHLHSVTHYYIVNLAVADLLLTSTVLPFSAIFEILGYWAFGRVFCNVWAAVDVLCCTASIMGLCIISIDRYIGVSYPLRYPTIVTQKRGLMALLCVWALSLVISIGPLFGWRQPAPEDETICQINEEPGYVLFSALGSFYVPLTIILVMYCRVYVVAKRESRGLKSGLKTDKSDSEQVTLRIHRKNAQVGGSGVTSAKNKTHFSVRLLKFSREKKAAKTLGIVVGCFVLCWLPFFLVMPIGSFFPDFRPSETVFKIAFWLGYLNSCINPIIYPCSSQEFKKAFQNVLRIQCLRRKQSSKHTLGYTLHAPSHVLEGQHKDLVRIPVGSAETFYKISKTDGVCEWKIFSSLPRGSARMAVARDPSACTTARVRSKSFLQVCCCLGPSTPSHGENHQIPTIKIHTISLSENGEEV
- test_name: In vitro affinity for alpha adrenergic receptor by displacement of 3[H]clonidine in calf cerebral cortex
- Format: tissue-based
property_name: log10(IC50) (log10 of the value in nM)
Lab note - IC50 converted to log10 from values in nM.

Input: Supply recorded log10(IC50) for CCN1CCO[C@@H]2c3cccc4[nH]cc(c34)C[C@H]21 (relative stereo) here.
Output: 3.13

Input: For the compound CCCCN1CCO[C@@H]2c3cccc4[nH]cc(c34)C[C@H]21 , give its reported log10(IC50).
Output: 1.66

Input: Could you please provide reported log10(IC50) for C=CCN1CCO[C@@H]2c3cccc4[nH]cc(c34)C[C@H]21 ? Thanks!
Output: 2.31

Input: Answer with the recorded log10(IC50) for the compound listed here: CN1CCO[C@@H]2c3cccc4[nH]cc(c34)C[C@H]21
Output: 1.43

Input: Specify log10(IC50) for CCN1CCO[C@@H]2c3cccc4[nH]cc(c34)C[C@H]21 (stereo in doubt; 6b) and stop.
Output: 1.18

Input: Using the record for c1cc2c3c(c[nH]c3c1)C[C@H]1NCCO[C@H]21 , state its measured log10(IC50).
Output: 1.74

Input: Indicate its recorded log10(IC50); the compound in question is CCN1CCO[C@@H]2c3cccc4[nH]cc(c34)C[C@H]21 (stereo in doubt; (+)6b)
Output: 1.53

Input: Provide only the value of recorded log10(IC50) for CCN1CCO[C@@H]2c3cccc4[nH]cc(c34)C[C@H]21 (stereo in doubt; (-)6b)
Output: 0.85

Input: Provide only the value of recorded log10(IC50) for CCCN1CCO[C@@H]2c3cccc4[nH]cc(c34)C[C@H]21
Output: 1.49
